Biological target: human GLP-1 receptor (human, UniProt P43220 24-463)
Test: cell-based or functional assay
*1 amine or outer side, *2 acyl side, *3 side chain or, on linkers, in order; H or OH if unused. Where no end group is shown, it is not given here. Side-chain parts run from the residue outwards. [ ]: non-standard residue; d: D form. The star is where a group is joined. Undecanoyl(11-OPh(4-COOH)) = O=C(O)c1ccc(OCCCCCCCCCCC(=O)*)cc1; αMePhe(2-F) = C[C@](N)(Cc1ccccc1F)C(=O)O; γGlu = O=C(O)[C@H](CCC(=O)[*:2])N[*:1]; αMeY = C[C@](N)(Cc1ccc(O)cc1)C(=O)O; αMeL = CC(C)C[C@](C)(N)C(=O)O; Orn = NCCC[C@H](N)C(=O)O; AEEA = NCCOCCOCC(=O)O; Aib = CC(C)(N)C(=O)O
propertyMeasured: cAMP EC50 (1.0% HSA) (nM)
Reply numerically in nM, unit not repeated.

// solved cases for cAMP EC50 (1.0% HSA) follow
binder	propertyMeasured	value
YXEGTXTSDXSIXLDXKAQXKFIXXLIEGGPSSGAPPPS (Y-Aib-EGT-αMeF(2F)-TSD-Nle-SI-αMeL-LD-Orn-K((2-[2-(2-Amino-ethoxy)-ethoxy]-acetyl)2-(γ-Glu)-(10-(4-carboxyphenoxy)decanoyl))AQ-Aib-K((2-[2-(2-Amino-ethoxy)-ethoxy]-acetyl)2-(γ-Glu)-(10-(4-carboxyphenoxy)decanoyl))FI-(D-Glu)-αMeY-LIEGGPSSGAPPPS-NH2) [Example 321]	cAMP EC50 (1.0% HSA)	13.9
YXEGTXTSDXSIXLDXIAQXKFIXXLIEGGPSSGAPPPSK (Y-Aib-EGT-αMeF(2F)-TSD-2Nal-SI-αMeL-LD-Orn-IAQ-Aib-K((2-[2-(2-Amino-ethoxy)-ethoxy]-acetyl)2-CO-(CH2)12-CO2H)Fl-(D-Glu)-αMeY-LIEGGPSSGAPPPSK((2-[2-(2-Amino-ethoxy)-ethoxy]-acetyl)2-CO-(CH2)12-CO2H)-NH2) [Example 258]	cAMP EC50 (1.0% HSA)	41.5
Y[Aib]EGT[αMePhe(2-F)]TSDV[Aib]I[αMeL]LD[Orn]IAQ[Aib]EFIK([AEEA-AEEA-γGlu-Undecanoyl(11-OPh(4-COOH))])[αMeY]LIK([AEEA-AEEA-γGlu-Undecanoyl(11-OPh(4-COOH))])GGPSSGAPPPS-NH2 [Example 313]	cAMP EC50 (1.0% HSA)	98.8
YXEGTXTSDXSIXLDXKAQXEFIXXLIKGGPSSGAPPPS (Y-Aib-EGT-αMeF(2F)-TSD-2Nal-SI-αMeL-LD-Orn-K((2-[2-(2-Amino-ethoxy)-ethoxy]-acetyl)2-(γ-Glu)-(10-(4-carboxyphenoxy)decanoyl))AQ-Aib-EFI-(D-Glu)-αMeY-LIK((2-[2-(2-Amino-ethoxy)-ethoxy]-acetyl)2-(γ-Glu)-(10-(4-carboxyphenoxy)decanoyl))GGPSSGAPPPS-NH2) [Example 282]	cAMP EC50 (1.0% HSA)	31.8
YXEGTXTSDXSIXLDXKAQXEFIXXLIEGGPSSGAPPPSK (Y-Aib-EGT-αMeF(2F)-TSD-2Nal-SI-αMeL-LD-Orn-K((2-[2-(2-Amino-ethoxy)-ethoxy]-acetyl)2-CO-(CH2)12-CO2H)AQ-Aib-EFI-(D-Glu)-αMeY-LIEGGPSSGAPPPSK((2-[2-(2-Amino-ethoxy)-ethoxy]-acetyl)2-CO-(CH2)12-CO2H)-NH2) [Example 257]	cAMP EC50 (1.0% HSA)	46.3

cAMP EC50 (1.0% HSA) recorded for this binder, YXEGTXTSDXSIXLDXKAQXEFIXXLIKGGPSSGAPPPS (Y-Aib-EGT-αMeF(2F)-TSD-4Pal-SI-αMeL-LD-Orn-K((2-[2-(2-Amino-ethoxy)-ethoxy]-acetyl)3-(γ-Glu)-CO-(CH2)12-CO2H)AQ-Aib-EFI-(D-Glu)-αMeY-LIK((2-[2-(2-Amino-ethoxy)-ethoxy]-acetyl)3-(γ-Glu)-CO-(CH2)12-CO2H)GGPSSGAPPPS-NH2) [Example 224] , is 71

cAMP EC50 (1.0% HSA) recorded for this binder, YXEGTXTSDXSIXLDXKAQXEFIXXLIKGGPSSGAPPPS (Y-Aib-EGT-αMeF(2F)-TSD-Nle-SI-αMeL-LD-Orn-K((2-[2-(2-Amino-ethoxy)-ethoxy]-acetyl)2-(γ-Glu)-(10-(4-carboxyphenoxy)decanoyl))AQ-Aib-EFI-(D-Glu)-αMeY-LIK((2-[2-(2-Amino-ethoxy)-ethoxy]-acetyl)2-(γ-Glu)-(10-(4-carboxyphenoxy)decanoyl))GGPSSGAPPPS-NH2) [Example 328] , is 23.3

cAMP EC50 (1.0% HSA) recorded for this binder, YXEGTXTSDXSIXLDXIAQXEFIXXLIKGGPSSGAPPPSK (Y-Aib-EGT-αMeF(2F)-TSD-4Pal-SI-αMeL-LD-Orn-IAQ-Aib-EFI-(D-Glu)-αMeY-LIK((2-[2-(2-Amino-ethoxy)-ethoxy]-acetyl)2-CO-(CH2)12-CO2H)GGPSSGAPPPSK((2-[2-(2-Amino-ethoxy)-ethoxy]-acetyl)2-CO-(CH2)12-CO2H)-NH2) [Example 223] , is 90.5

cAMP EC50 (1.0% HSA) recorded for this binder, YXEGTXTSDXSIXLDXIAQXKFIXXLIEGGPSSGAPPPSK (Y-Aib-EGT-αMeF(2F)-TSD-4Pal-SI-αMeL-LD-Orn-IAQ-Aib-K((2-[2-(2-Amino-ethoxy)-ethoxy]-acetyl)2-(y-Glu)-(10-(4-carboxyphenoxy)decanoyl))FI-(D-Glu)-αMeY-LIEGGPSSGAPPPSK((2-[2-(2-Amino-ethoxy)-ethoxy]-acetyl)2-(γ-Glu)-(10-(4-carboxyphenoxy)decanoyl))-NH2) [Example 276] , is 63.6

cAMP EC50 (1.0% HSA) recorded for this binder, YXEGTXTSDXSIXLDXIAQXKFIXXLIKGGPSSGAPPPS (Y-Aib-EGT-αMeF(2F)-TSD-4Pal-SI-αMeL-LD-Orn-IAQ-Aib-K(2-[2-(2-Amino-ethoxy)-ethoxy]-acetyl)2-(γ-Glu)-(11-(4-carboxyphenoxy)undecanoyl)FI-(D-Glu)-αMeY-LIK((2-[2-(2-Amino-ethoxy)-ethoxy]-acetyl)2-(γ-Glu)-(11-(4-carboxyphenoxy)undecanoyl)GGPSSGAPPPS-NH2)) [Example 287] , is 83.8

cAMP EC50 (1.0% HSA) recorded for this binder, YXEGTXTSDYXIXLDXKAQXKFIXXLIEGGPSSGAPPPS (Y-Aib-EGT-αMeF(2F)-TSDY-Aib-I-αMeL-LD-Orn-K((2-[2-(2-Amino-ethoxy)-ethoxy]-acetyl)2-(γ-Glu)-(10-(4-carboxyphenoxy)decanoyl))AQ-Aib-K((2-[2-(2-Amino-ethoxy)-ethoxy]-acetyl)2-(γ-Glu)-(10-(4-carboxyphenoxy)decanoyl))FI-(D-Glu)-αMeY-LIEGGPSSGAPPPS-NH2) [Example 236] , is 32.6

cAMP EC50 (1.0% HSA) recorded for this binder, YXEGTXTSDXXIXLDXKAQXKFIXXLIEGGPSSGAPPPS (Y-Aib-EGT-αMeF(2F)-TSD-4Pal-Aib-I-αMeL-LD-Orn-K((2-[2-(2-Amino-ethoxy)-ethoxy]-acetyl)2-(γ-Glu)-(10-(4-carboxyphenoxy)decanoyl))AQ-Aib-K((2-[2-(2-Amino-ethoxy)-ethoxy]-acetyl)2-(γ-Glu)-(10-(4-carboxyphenoxy)decanoyl))FI-(D-Glu)-αMeY-LIEGGPSSGAPPPS-NH2) [Example 243] , is 34.7

cAMP EC50 (1.0% HSA) recorded for this binder, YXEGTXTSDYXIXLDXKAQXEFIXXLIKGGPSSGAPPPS (Y-Aib-EGT-αMeF(2F)-TSDY-Aib-I-αMeL-LD-Orn-K((2-[2-(2-Amino-ethoxy)-ethoxy]-acetyl)2-(γ-Glu)-CO-(CH2)12-CO2H)AQ-Aib-EFI-(D-Glu)-αMeY-LIK((2-[2-(2-Amino-ethoxy)-ethoxy]-acetyl)2-(γ-Glu)-CO-(CH2)12-CO2H)GGPSSGAPPPS-NH2) [Example 231] , is 51.8

cAMP EC50 (1.0% HSA) recorded for this binder, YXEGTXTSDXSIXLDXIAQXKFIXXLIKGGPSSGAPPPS (Y-Aib-EGT-αMeF(2F)-TSD-OMeY-SI-αMeL-LD-Orn-IAQ-Aib-K((2-[2-(2-Amino-ethoxy)-ethoxy]-acetyl)2-(γ-Glu)-(10-(4-carboxyphenoxy)decanoyl))FI-(D-Glu)-αMeY-LIK((2-[2-(2-Amino-ethoxy)-ethoxy]-acetyl)2-(γ-Glu)-(10-(4-carboxyphenoxy)decanoyl))GGPSSGAPPPS-NH2) [Example 280] , is 49.9

cAMP EC50 (1.0% HSA) recorded for this binder, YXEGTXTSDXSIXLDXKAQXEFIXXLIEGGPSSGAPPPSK (Y-Aib-EGT-αMeF(2F)-TSD-OMeY-SI-αMeL-LD-Orn-K((2-[2-(2-Amino-ethoxy)-ethoxy]-acetyl)2-(γ-Glu)-CO-(CH2)12-CO2H)AQ-Aib-EFI-(D-Glu)-αMeY-LIEGGPSSGAPPPSK((2-[2-(2-Amino-ethoxy)-ethoxy]-acetyl)2-(γ-Glu)-CO-(CH2)12-CO2H)-NH2) [Example 261] , is 15.6

cAMP EC50 (1.0% HSA) recorded for this binder, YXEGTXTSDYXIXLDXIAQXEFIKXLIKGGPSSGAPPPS (Y-Aib-EGT-αMeF(2F)-TSDY-αMeS-I-αMeL-LD-Orn-IAQ-Aib-EFIK((2-[2-(2-Amino-ethoxy)-ethoxy]-acetyl)2-(γ-Glu)-CO-(CH2)12-CO2H)-αMeY-LIK((2-[2-(2-Amino-ethoxy)-ethoxy]-acetyl)2-(γ-Glu)-CO-(CH2)12-CO2H)GGPSSGAPPPS-NH2) [Example 303] , is 50.4

cAMP EC50 (1.0% HSA) recorded for this binder, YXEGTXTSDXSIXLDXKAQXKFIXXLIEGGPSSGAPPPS (Y-Aib-EGT-αMeF(2F)-TSD-Nle-SI-αMeL-LD-Orn-K((2-[2-(2-Amino-ethoxy)-ethoxy]-acetyl)2-CO-(CH2)12-CO2H)AQ-Aib-K((2-[2-(2-Amino-ethoxy)-ethoxy]-acetyl)2-CO-(CH2)12-CO2H)FI-(D-Glu)-αMeY-LIEGGPSSGAPPPS-NH2) [Example 271] , is 10.2

cAMP EC50 (1.0% HSA) recorded for this binder, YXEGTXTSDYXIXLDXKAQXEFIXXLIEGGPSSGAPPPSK (Y-Aib-EGT-αMeF(2F)-TSDY-Aib-I-αMeL-LD-Orn-K((2-[2-(2-Amino-ethoxy)-ethoxy]-acetyl)2-(γ-Glu)-(10-(4-carboxyphenoxy)decanoyl))AQ-Aib-EFI-(D-Glu)-αMeY-LIEGGPSSGAPPPSK((2-[2-(2-Amino-ethoxy)-ethoxy]-acetyl)2-(γ-Glu)-(10-(4-carboxyphenoxy)decanoyl))-NH2) [Example 238] , is 27.2

cAMP EC50 (1.0% HSA) recorded for this binder, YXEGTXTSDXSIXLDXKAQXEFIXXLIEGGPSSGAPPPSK (Y-Aib-EGT-αMeF(2F)-TSD-4Pal-SI-αMeL-LD-Orn-K((2-[2-(2-Amino-ethoxy)-ethoxy]-acetyl)2-(γ-Glu)-(11-(4-carboxyphenoxy)undecanoyl))AQ-Aib-EFI-(D-Glu)-αMeY-LIEGGPSSGAPPPSK((2-[2-(2-Amino-ethoxy)-ethoxy]-acetyl)2-(γ-Glu)-(11-(4-carboxyphenoxy)undecanoyl))-NH2) [Example 285] , is 136

cAMP EC50 (1.0% HSA) recorded for this binder, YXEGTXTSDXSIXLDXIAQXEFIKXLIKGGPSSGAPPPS (Y-Aib-EGT-αMeF(2F)-TSD-4Pal-SI-αMeL-LD-Orn-IAQ-Aib-EFIK((2-[2-(2-Amino-ethoxy)-ethoxy]-acetyl)3-(γ-Glu)-CO-(CH2)12-CO2H)-αMeY-LIK((2-[2-(2-Amino-ethoxy)-ethoxy]-acetyl)3-(γ-Glu)-CO-(CH2)12-CO2H)GGPSSGAPPPS-NH2) [Example 226] , is 11.3

cAMP EC50 (1.0% HSA) recorded for this binder, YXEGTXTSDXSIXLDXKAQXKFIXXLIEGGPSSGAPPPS (Y-Aib-EGT-αMeF(2F)-TSD-OMeY-SI-αMeL-LD-Orn-K((2-[2-(2-Amino-ethoxy)-ethoxy]-acetyl)2-(γ-Glu)-CO-(CH2)12-CO2H)AQ-Aib-K((2-[2-(2-Amino-ethoxy)-ethoxy]-acetyl)2-(γ-Glu)-CO-(CH2)12-CO2H)FI-(D-Glu)-αMeY-LIEGGPSSGAPPPS-NH2) [Example 259] , is 28.9

cAMP EC50 (1.0% HSA) recorded for this binder, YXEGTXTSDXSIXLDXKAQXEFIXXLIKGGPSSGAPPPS (Y-Aib-EGT-αMeF(2F)-TSD-2Nal-SI-αMeL-LD-Orn-K((2-[2-(2-Amino-ethoxy)-ethoxy]-acetyl)2-(γ-Glu)-CO-(CH2)12-CO2H)AQ-Aib-EFI-(D-Glu)-αMeY-LIK((2-[2-(2-Amino-ethoxy)-ethoxy]-acetyl)2-(γ-Glu)-CO-(CH2)12-CO2H)GGPSSGAPPPS-NH2) [Example 250] , is 63

cAMP EC50 (1.0% HSA) recorded for this binder, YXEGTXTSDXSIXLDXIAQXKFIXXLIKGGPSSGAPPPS (Y-Aib-EGT-αMeF(2F)-TSD-OMeY-SI-αMeL-LD-Orn-IAQ-Aib-K((2-[2-(2-Amino-ethoxy)-ethoxy]-acetyl)2-(γ-Glu)-CO-(CH2)12-CO2H)FI-(D-Glu)-αMeY-LIK((2-[2-(2-Amino-ethoxy)-ethoxy]-acetyl)2-(γ-Glu)-CO-(CH2)12-CO2H)GGPSSGAPPPS-NH2) [Example 263] , is 56.7

cAMP EC50 (1.0% HSA) recorded for this binder, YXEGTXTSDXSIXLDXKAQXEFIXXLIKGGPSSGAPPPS (Y-Aib-EGT-αMeF(2F)-TSD-2Nal-SI-αMeL-LD-Orn-K((2-[2-(2-Amino-ethoxy)-ethoxy]-acetyl)2-CO-(CH2)12-CO2H)AQ-Aib-EFI-(D-Glu)-αMeY-LIK((2-[2-(2-Amino-ethoxy)-ethoxy]-acetyl)2-CO-(CH2)12-CO2H)GGPSSGAPPPS-NH2 …) [Example 256] , is 12.6
